Entries and their pKi values follow.
# assayed_system: Adenosine receptor A1 (Rattus norvegicus, UniProt P25099)
# Sequence (P25099 whole entry): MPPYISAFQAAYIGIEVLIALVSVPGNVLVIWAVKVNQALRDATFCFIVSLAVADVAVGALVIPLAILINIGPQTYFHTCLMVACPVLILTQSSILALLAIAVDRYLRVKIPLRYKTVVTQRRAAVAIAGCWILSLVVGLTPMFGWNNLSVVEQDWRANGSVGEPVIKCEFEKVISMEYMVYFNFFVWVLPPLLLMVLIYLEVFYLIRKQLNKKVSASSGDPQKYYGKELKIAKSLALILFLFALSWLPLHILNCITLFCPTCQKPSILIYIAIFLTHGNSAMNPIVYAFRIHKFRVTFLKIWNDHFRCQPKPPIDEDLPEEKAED
pKi: −log10 of the molar value.

Below, each entry is followed by its recorded pKi result.
>>> endpoint_value("CCCn1c2nc(C34CCC(O)(CC3)CC4)nc-2c2n(c1=O)CC[C@@H](CC)N2")
"< 6.60"
>>> endpoint_value("CCCn1c2nc(C34CCC(O)(CC3)CC4)nc-2c2n(c1=O)CC[C@@H](C)N2")
"< 6.60"

Could you now consider this next molecule?
Return reported pKi; argument: CCCn1c2nc(C34CCC(O)(CC3)CC4)nc-2c2n(c1=O)C[C@H](CC)N2
< 7.00

----------
# assayed_system: Adenosine receptor A3 (Homo sapiens, UniProt P0DMS8)
# Sequence (P0DMS8 whole entry): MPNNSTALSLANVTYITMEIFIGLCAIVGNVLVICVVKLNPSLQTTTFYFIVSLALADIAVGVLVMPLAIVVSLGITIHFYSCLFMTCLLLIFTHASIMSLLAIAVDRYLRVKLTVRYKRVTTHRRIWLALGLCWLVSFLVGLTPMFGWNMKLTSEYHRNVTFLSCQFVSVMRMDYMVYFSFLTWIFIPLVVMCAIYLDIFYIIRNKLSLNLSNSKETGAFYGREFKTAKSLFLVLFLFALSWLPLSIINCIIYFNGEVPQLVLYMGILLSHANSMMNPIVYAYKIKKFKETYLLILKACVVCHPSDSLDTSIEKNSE
pKi: −log10 of the molar value.
measurement_label: pKi

// pKi lookup, key: CCCn1c2nc(C34CCC(O)(CC3)CC4)nc-2c2n(c1=O)C[C@@H](C(C)C)N2
< 5.00
